ASSAY_NOTES: activity coefficient (dimensionless); of the first substance listed, at infinite dilution; xn = mol fraction of the nth substance listed
CONDITION_SUMMARY: 398.15 K; 101 kPa; Liquid; Chromatography; x1 = 0
activity coefficient reference

Use these answered entries as a reference point.
COMPOUND	activity coefficient
CC(C)CO [2-methyl-1-propanol] + CCCCn1cc[n+](C)c1.COP(=O)([O-])OC	0.23
CC(C)(C)O [2-methylpropan-2-ol] + CCCCn1cc[n+](C)c1.[Cl-]	0.987
CCO [ethanol] + CCCCn1cc[n+](C)c1.COP(=O)([O-])OC	0.16

For the next question, use this compound.
Q) For O [water] + CCCCn1cc[n+](C)c1.COP(=O)([O-])OC , write its activity coefficient.
A) 0.073

---

activity coefficient reference
ASSAY_NOTES: activity coefficient (dimensionless); of the first substance listed, at infinite dilution; xn = mol fraction of the nth substance listed
CONDITION_SUMMARY: 388.15 K; 101 kPa; Liquid; Chromatography; x1 = 0
The answer should be written as a number, with no unit following it.

MOLECULE	RECORDED_MEASUREMENT
CC#N [acetonitrile] + CCCCn1cc[n+](C)c1.CS(=O)(=O)[O-]	1.12
CCOCC [diethyl ether] + CCCCn1cc[n+](C)c1.COP(=O)([O-])OC	6.48
C1CCCCC1 [cyclohexane] + CCCCn1cc[n+](C)c1.COP(=O)([O-])OC	11.4

For the next question, use this molecule.
Q) For CC(C)=O [acetone] + CCCCn1cc[n+](C)c1.[Cl-] , write its activity coefficient.
A) 3.27

---

ASSAY_NOTES: activity coefficient (dimensionless); of the first substance listed, at infinite dilution; xn = mol fraction of the nth substance listed
CONDITION_SUMMARY: 428.15 K; 101 kPa; Liquid; Chromatography; x1 = 0
activity coefficient reference
The answer should be written as a number, with no unit following it.

Q) For O [water] + CCCCn1cc[n+](C)c1.COP(=O)([O-])OC , write its activity coefficient.
A) 0.101

Q) For O [water] + CCCCn1cc[n+](C)c1.[Cl-] , write its activity coefficient.
A) 0.094

Q) For CC(C)(C)O [2-methylpropan-2-ol] + CCCCn1cc[n+](C)c1.CS(=O)(=O)[O-] , write its activity coefficient.
A) 1.59

Q) For CCCCO [butan-1-ol] + CCCCn1cc[n+](C)c1.[Cl-] , write its activity coefficient.
A) 0.68

Q) For CC(C)(C)O [2-methylpropan-2-ol] + CCCCn1cc[n+](C)c1.COP(=O)([O-])OC , write its activity coefficient.
A) 0.592

Q) For CC(C)O [propan-2-ol] + CCCCn1cc[n+](C)c1.COP(=O)([O-])OC , write its activity coefficient.
A) 0.344

Q) For CCC(C)O (stereo not given) [butan-2-ol] + CCCCn1cc[n+](C)c1.[Cl-] , write its activity coefficient.
A) 0.931

---

ASSAY_NOTES: activity coefficient (dimensionless); of the first substance listed, at infinite dilution; xn = mol fraction of the nth substance listed
CONDITION_SUMMARY: 368.15 K; 101 kPa; Liquid; Chromatography; x1 = 0
PARAMETER: activity coefficient
The answer should be written as a number, with no unit following it.

Use these answered entries as a reference point.
COMPOUND	RECORDED_MEASUREMENT
CCOCC [diethyl ether] + CCCCn1cc[n+](C)c1.COP(=O)([O-])OC	6.3
CCCC=O [butanal] + CCCCn1cc[n+](C)c1.CS(=O)(=O)[O-]	3.44

Q) For CC#N [acetonitrile] + CCCCn1cc[n+](C)c1.[Cl-] , write its activity coefficient.
A) 1.16

---

activity coefficient reference
ASSAY_NOTES: activity coefficient (dimensionless); of the first substance listed, at infinite dilution; xn = mol fraction of the nth substance listed
CONDITION_SUMMARY: 408.15 K; 101 kPa; Liquid; Chromatography; x1 = 0
The answer should be written as a number, with no unit following it.

Use these answered entries as a reference point.
MOLECULE	activity coefficient
CCCCO [butan-1-ol] + CCCCn1cc[n+](C)c1.[Cl-]	0.594
CCO [ethanol] + CCCCn1cc[n+](C)c1.COP(=O)([O-])OC	0.173

Q) For CC(C)(C)O [2-methylpropan-2-ol] + CCCCn1cc[n+](C)c1.[Cl-] , write its activity coefficient.
A) 1.07

---

ASSAY_NOTES: activity coefficient (dimensionless); of the first substance listed, at infinite dilution; xn = mol fraction of the nth substance listed
CONDITION_SUMMARY: 368.15 K; 101 kPa; Liquid; Chromatography; x1 = 0
PARAMETER: activity coefficient

Use these answered entries as a reference point.
MOLECULE	RECORDED_MEASUREMENT
C=CCCCC [hex-1-ene] + CCCCn1cc[n+](C)c1.[Cl-]	57.9
COC(C)=O [methyl ethanoate] + CCCCn1cc[n+](C)c1.CS(=O)(=O)[O-]	3.03
C=Cc1ccccc1 [styrene] + CCCCn1cc[n+](C)c1.COP(=O)([O-])OC	2.93

For the next question, use this molecule.
Q) For C1CCCC1 [cyclopentane] + CCCCn1cc[n+](C)c1.CS(=O)(=O)[O-] , write its activity coefficient.
A) 23.7

---

ASSAY_NOTES: activity coefficient (dimensionless); of the first substance listed, at infinite dilution; xn = mol fraction of the nth substance listed
CONDITION_SUMMARY: 358.15 K; 101 kPa; Liquid; Chromatography; x1 = 0
# label = TRUE if activity coefficient >= 10 else FALSE

Q) Quick check, activity coefficient >= 10? C=CCCCC [hex-1-ene] + CCCCn1cc[n+](C)c1.[Cl-]
A) TRUE

Q) Quick check, activity coefficient >= 10? C1CCCCC1 [cyclohexane] + CCCCn1cc[n+](C)c1.COP(=O)([O-])OC
A) TRUE

Q) Quick check, activity coefficient >= 10? Cc1ccc(C)cc1 [1,4-dimethylbenzene] + CCCCn1cc[n+](C)c1.COP(=O)([O-])OC
A) FALSE

---

ASSAY_NOTES: activity coefficient (dimensionless); of the first substance listed, at infinite dilution; xn = mol fraction of the nth substance listed
CONDITION_SUMMARY: 388.15 K; 101 kPa; Liquid; Chromatography; x1 = 0
Each record gets a class by activity coefficient: I = under 10, II = from 10 up to 70, III = 70 and over

Q) Exam item: assign Cc1ccccc1C [1,2-dimethylbenzene] + CCCCn1cc[n+](C)c1.[Cl-] to the correct category.
A) II

Q) Exam item: assign CCCC(C)=O [pentan-2-one] + CCCCn1cc[n+](C)c1.COP(=O)([O-])OC to the correct category.
A) I

---

ASSAY_NOTES: activity coefficient (dimensionless); of the first substance listed, at infinite dilution; xn = mol fraction of the nth substance listed
CONDITION_SUMMARY: 358.15 K; 101 kPa; Liquid; Chromatography; x1 = 0
activity coefficient reference
The answer should be written as a number, with no unit following it.

COMPOUND	RECORDED_MEASUREMENT
CCOC(C)=O [ethyl acetate] + CCCCn1cc[n+](C)c1.[Cl-]	9.02
C#CCCCCCC [1-octyne] + CCCCn1cc[n+](C)c1.CS(=O)(=O)[O-]	17.8
CCC(=O)OC [methyl propanoate] + CCCCn1cc[n+](C)c1.COP(=O)([O-])OC	3.56
COC(C)=O [methyl ethanoate] + CCCCn1cc[n+](C)c1.CS(=O)(=O)[O-]	2.94
CCOC(C)(C)C [2-ethoxy-2-methylpropane] + CCCCn1cc[n+](C)c1.COP(=O)([O-])OC	12.8
CCCCCCCC [octane] + CCCCn1cc[n+](C)c1.[Cl-]	331
CCc1ccccc1 [ethylbenzene] + CCCCn1cc[n+](C)c1.COP(=O)([O-])OC	5.73

For the next question, use this compound.
Q) For CC#N [acetonitrile] + CCCCn1cc[n+](C)c1.[Cl-] , write its activity coefficient.
A) 1.12

---

ASSAY_NOTES: activity coefficient (dimensionless); of the first substance listed, at infinite dilution; xn = mol fraction of the nth substance listed
CONDITION_SUMMARY: 368.15 K; 101 kPa; Liquid; Chromatography; x1 = 0
activity coefficient reference
The answer should be written as a number, with no unit following it.

Use these answered entries as a reference point.
COMPOUND	RECORDED_MEASUREMENT
CC1CCCCC1 [methylcyclohexane] + CCCCn1cc[n+](C)c1.[Cl-]	79
CCC[N+](=O)[O-] [1-nitropropane] + CCCCn1cc[n+](C)c1.COP(=O)([O-])OC	1.56
CCCCCCCCC [nonane] + CCCCn1cc[n+](C)c1.COP(=O)([O-])OC	64
COC(C)(C)C [2-methoxy-2-methylpropane] + CCCCn1cc[n+](C)c1.CS(=O)(=O)[O-]	17.4
CCCCCCCCCC [decane] + CCCCn1cc[n+](C)c1.COP(=O)([O-])OC	88.5
CCCCCCCCC [nonane] + CCCCn1cc[n+](C)c1.[Cl-]	433
C1=CCCCC1 [cyclohexene] + CCCCn1cc[n+](C)c1.CS(=O)(=O)[O-]	18.6
CCC(=O)OC [methyl propanoate] + CCCCn1cc[n+](C)c1.CS(=O)(=O)[O-]	4.56
Cc1ccccc1C [1,2-dimethylbenzene] + CCCCn1cc[n+](C)c1.CS(=O)(=O)[O-]	7.79
C=CCCCCCCCC [1-decene] + CCCCn1cc[n+](C)c1.CS(=O)(=O)[O-]	187

Q) For CCCCCCCC [octane] + CCCCn1cc[n+](C)c1.[Cl-] , write its activity coefficient.
A) 302

Q) For C#CCCC [1-pentyne] + CCCCn1cc[n+](C)c1.CS(=O)(=O)[O-] , write its activity coefficient.
A) 5.84

Q) For CCOCC [diethyl ether] + CCCCn1cc[n+](C)c1.CS(=O)(=O)[O-] , write its activity coefficient.
A) 14.9

Q) For C=CCCCCCCCC [1-decene] + CCCCn1cc[n+](C)c1.[Cl-] , write its activity coefficient.
A) 306

Q) For CCC(=O)CC [pentan-3-one] + CCCCn1cc[n+](C)c1.COP(=O)([O-])OC , write its activity coefficient.
A) 3.81

Q) For Cc1cccc(C)c1 [1,3-dimethylbenzene] + CCCCn1cc[n+](C)c1.CS(=O)(=O)[O-] , write its activity coefficient.
A) 9.43

Q) For C=CCCCCCC [oct-1-ene] + CCCCn1cc[n+](C)c1.CS(=O)(=O)[O-] , write its activity coefficient.
A) 86.8

Q) For C#CCCCCCC [1-octyne] + CCCCn1cc[n+](C)c1.COP(=O)([O-])OC , write its activity coefficient.
A) 6.22

Q) For C#CCCCC [1-hexyne] + CCCCn1cc[n+](C)c1.COP(=O)([O-])OC , write its activity coefficient.
A) 3.22

Q) For C1CCCCCC1 [cycloheptane] + CCCCn1cc[n+](C)c1.COP(=O)([O-])OC , write its activity coefficient.
A) 14.6

Q) For C=Cc1ccccc1 [styrene] + CCCCn1cc[n+](C)c1.[Cl-] , write its activity coefficient.
A) 5.18

Q) For CCCC(C)=O [pentan-2-one] + CCCCn1cc[n+](C)c1.COP(=O)([O-])OC , write its activity coefficient.
A) 3.7

Where these numbers come from: the NIST ThermoML archive (doi:10.1016/j.jct.2015.07.042)
